Listed compounds paired with reported pIC50
# system name: PDGF-Ra (Homo sapiens, UniProt P16234)
# Construct: host or cells: G-292 human osteosarcoma cells
# Sequence (P16234 24-1089): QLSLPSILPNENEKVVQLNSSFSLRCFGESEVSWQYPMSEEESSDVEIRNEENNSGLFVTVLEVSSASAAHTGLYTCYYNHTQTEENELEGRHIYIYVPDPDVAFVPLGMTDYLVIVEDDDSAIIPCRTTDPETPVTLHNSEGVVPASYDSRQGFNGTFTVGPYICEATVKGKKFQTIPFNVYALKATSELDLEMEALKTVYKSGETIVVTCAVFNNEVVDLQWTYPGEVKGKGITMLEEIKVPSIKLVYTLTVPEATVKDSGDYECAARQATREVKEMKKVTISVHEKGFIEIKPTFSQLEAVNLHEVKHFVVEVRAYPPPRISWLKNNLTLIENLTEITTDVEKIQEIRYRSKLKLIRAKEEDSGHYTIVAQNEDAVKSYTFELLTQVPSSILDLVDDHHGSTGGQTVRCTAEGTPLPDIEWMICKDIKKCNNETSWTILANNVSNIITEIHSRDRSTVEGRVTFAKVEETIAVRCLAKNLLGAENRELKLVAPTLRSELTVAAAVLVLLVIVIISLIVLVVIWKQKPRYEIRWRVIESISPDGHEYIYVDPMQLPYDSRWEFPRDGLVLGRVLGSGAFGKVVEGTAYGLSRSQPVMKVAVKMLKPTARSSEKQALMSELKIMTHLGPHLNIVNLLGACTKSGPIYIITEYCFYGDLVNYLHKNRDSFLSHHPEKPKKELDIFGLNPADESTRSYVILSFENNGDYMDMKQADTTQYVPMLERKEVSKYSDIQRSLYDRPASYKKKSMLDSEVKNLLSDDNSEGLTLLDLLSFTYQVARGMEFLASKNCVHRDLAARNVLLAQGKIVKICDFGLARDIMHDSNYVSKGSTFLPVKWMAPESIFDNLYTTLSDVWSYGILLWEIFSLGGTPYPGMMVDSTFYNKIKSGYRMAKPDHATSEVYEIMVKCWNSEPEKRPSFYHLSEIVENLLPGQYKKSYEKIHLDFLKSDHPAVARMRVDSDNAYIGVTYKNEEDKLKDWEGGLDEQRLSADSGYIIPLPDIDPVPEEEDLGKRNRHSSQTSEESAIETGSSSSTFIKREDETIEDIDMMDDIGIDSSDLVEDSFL
# assay overview: Inhibitory activity against PDGF-Ra phosphorylation by PDGF-AA stimulation using G292
# Format: cell-based
# assay setup: > means inhibition at indicated concentration not more than 50%, < and << not less than 50%; read-out: PDGF (E) IC50
pIC50: −log10 of the molar value.
attribute measured: pIC50

| compound | system name | attribute measured | value |
| --- | --- | --- | --- |
| COc1cc2nccc(Oc3ccc(NC(=O)OCc4ccncc4)cc3)c2cc1OC | PDGF-Ra (Homo sapiens, UniProt P16234) | pIC50 | 7.96 |
| CCCC(CCN(CC)CC)OC(=O)Nc1ccc(Oc2ccnc3cc(OC)c(OC)cc23)c(C)c1C (stereo not drawn) | PDGF-Ra (Homo sapiens, UniProt P16234) | pIC50 | 7.82 |
| COc1cc2ncnc(Oc3ccc(NC(=S)NC(=O)Cc4ccccc4)cc3)c2cc1OC | PDGF-Ra (Homo sapiens, UniProt P16234) | pIC50 | > 8.00 |
| COc1cc2nccc(Oc3cc(C)c(NC(=S)NN4CCCCC4)cc3C)c2cc1OC | PDGF-Ra (Homo sapiens, UniProt P16234) | pIC50 | < 7.00 |
| COc1cc2nccc(Oc3ccc(NC(=O)NN4CCCCC4)c([N+](=O)[O-])c3)c2cc1OC | PDGF-Ra (Homo sapiens, UniProt P16234) | pIC50 | < 7.00 |
| COc1cc2nccc(Oc3ccc(NC(=S)NCCCN4CCN(C)CC4)c(C)c3C)c2cc1OC | PDGF-Ra (Homo sapiens, UniProt P16234) | pIC50 | < 7.00 |
| CCN(CC)CCOc1ccc(Oc2ncnc3cc(OC)c(OC)cc23)cc1 | PDGF-Ra (Homo sapiens, UniProt P16234) | pIC50 | < 7.00 |
| COc1cc2nccc(Oc3cc(C)c(NC(=O)NCCN4CCCC4)cc3C)c2cc1OC | PDGF-Ra (Homo sapiens, UniProt P16234) | pIC50 | < 7.00 |
| COc1cc2nccc(Oc3ccc(NC(=S)NC(=O)Cc4cccs4)cc3Cl)c2cc1OC | PDGF-Ra (Homo sapiens, UniProt P16234) | pIC50 | > 8.00 |

* * *

# system name: PDGF-Ra (Homo sapiens)
# Construct: host or cells: G-292 human osteosarcoma cells
# assay overview: Inhibitory activity against PDGF-Ra phosphorylation by PDGF-AA stimulation using G292
# Type: cell-based
# assay setup: > means inhibition at indicated concentration not more than 50%, < and << not less than 50%; read-out: PDGF (E) IC50
pIC50: −log10 of the molar value.
attribute measured: pIC50

| input smiles | system name | attribute measured | value |
| --- | --- | --- | --- |
| CCCCN(CCCC)CCCNC(=S)Nc1cc(C)c(Oc2ccnc3cc(OC)c(OC)cc23)cc1C | PDGF-Ra (Homo sapiens) | pIC50 | < 7.00 |
| COc1cc2nccc(Oc3cc(C)c(NC(=O)OCCCN4CCOCC4)cc3C)c2cc1OC | PDGF-Ra (Homo sapiens) | pIC50 | > 8.00 |
| CCOC(=O)N1CCC(NC(=O)Nc2ccc(Oc3ccnc4cc(OC)c(OC)cc34)cc2)CC1 | PDGF-Ra (Homo sapiens) | pIC50 | > 8.00 |
| COc1cc2ncnc(Oc3ccc(NC(=O)OC4CCOCC4)cc3)c2cc1OC | PDGF-Ra (Homo sapiens) | pIC50 | < 7.00 |
| COc1cc2nccc(Oc3cc(C)c(NC(=S)NCCCN4CCN(C)CC4)cc3C)c2cc1OC | PDGF-Ra (Homo sapiens) | pIC50 | < 7.00 |
| CCN(CCNC(=O)Nc1ccc(Oc2ncnc3cc(OC)c(OC)cc23)cc1[N+](=O)[O-])c1cccc(C)c1 | PDGF-Ra (Homo sapiens) | pIC50 | > 8.00 |

* * *

# system name: c-kit (Homo sapiens, UniProt P10721)
# Construct: MO7e (human megakaryocytic leukemia cell line) which had been arrested for 20 hr; endogenous in cells; host or cells: MO7e human megakaryocytic leukemia cell line
# Sequence (P10721 26-976): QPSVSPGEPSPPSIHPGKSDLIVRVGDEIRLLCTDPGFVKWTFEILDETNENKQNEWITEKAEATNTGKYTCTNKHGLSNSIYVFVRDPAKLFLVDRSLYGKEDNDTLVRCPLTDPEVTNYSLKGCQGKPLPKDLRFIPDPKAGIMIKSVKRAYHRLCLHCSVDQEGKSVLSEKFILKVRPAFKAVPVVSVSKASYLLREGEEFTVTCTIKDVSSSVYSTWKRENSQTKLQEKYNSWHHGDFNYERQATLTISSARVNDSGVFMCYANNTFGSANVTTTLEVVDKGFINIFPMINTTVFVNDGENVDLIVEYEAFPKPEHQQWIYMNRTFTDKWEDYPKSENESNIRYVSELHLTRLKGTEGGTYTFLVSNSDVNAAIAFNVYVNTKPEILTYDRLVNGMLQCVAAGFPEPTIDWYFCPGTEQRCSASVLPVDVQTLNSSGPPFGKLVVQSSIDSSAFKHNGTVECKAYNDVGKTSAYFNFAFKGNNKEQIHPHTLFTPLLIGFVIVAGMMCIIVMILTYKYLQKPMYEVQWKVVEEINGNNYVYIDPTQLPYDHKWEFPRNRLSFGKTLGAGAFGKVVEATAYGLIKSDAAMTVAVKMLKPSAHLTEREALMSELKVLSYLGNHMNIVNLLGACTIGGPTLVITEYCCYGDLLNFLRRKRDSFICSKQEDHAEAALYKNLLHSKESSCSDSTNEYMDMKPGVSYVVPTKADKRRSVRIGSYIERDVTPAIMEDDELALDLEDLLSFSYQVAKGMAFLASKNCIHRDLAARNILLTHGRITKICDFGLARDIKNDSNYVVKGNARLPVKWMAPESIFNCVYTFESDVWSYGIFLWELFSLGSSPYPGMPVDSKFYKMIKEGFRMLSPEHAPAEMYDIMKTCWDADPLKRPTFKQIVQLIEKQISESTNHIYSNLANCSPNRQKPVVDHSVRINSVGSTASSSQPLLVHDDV
# assay overview: Inhibitory activity against c-kit autophosphorylation (MO7e cells, h-SCF)
# Type: cell-based
# assay setup: MO7e cells, 50 ng/ml h-SCF; read-out: c-kit IC50
# Description: Inhibitory Activity Against c-kit Autophosphorylation MO7e (human megakaryocytic leukemia cell line) which had been arrested for 20 hr was seeded into 96 well plates at an amount of 2×10^5 per well. A solution of a test compound in DMSO was added, and a reaction was then allowed to proceed for one hr. Thereafter, the cells were stimulated by 50 ng/ml of h-SCF for 5 min, followed by replacement with lysate buffer to solubilize the cells. […]
Labelling: IC50 reported below 300 nM becomes true (1); at or above becomes false (0).

| compound | class label |
| --- | --- |
| COc1cc2nccc(Oc3ccc(OCC(=O)Nc4ccc(Cl)cc4)cc3)c2cc1OC [Example 789] | true (1) |
| CCN(CCNC(=S)Nc1cc(C)c(Oc2ccnc3cc(OC)c(OC)cc23)cc1C)c1ccccc1C [Example 540] | false (0) |
| COc1ccccc1CC(=O)NC(=S)Nc1ccc(Oc2ccnc3cc(OC)c(OC)cc23)cc1 [Example 733] | true (1) |
| CCCC(CCN1CCN(C)CC1)OC(=O)Nc1ccc(Oc2ccnc3cc(OC)c(OC)cc23)c(C)c1C (stereo not shown) [Example 451] | false (0) |
| COc1cc2nccc(Oc3ccc(NC(=S)NC(=O)Cc4ccccc4C)cc3Cl)c2cc1OC [Example 702] | false (0) |
| COc1cc(Oc2ncnc3cc(OC)c(OC)cc23)ccc1NC(=O)OCCc1ccccn1 [Example 501] | true (1) |
| COc1cc2nccc(Oc3ccc(NC(=O)OCc4ccccn4)c(C)c3C)c2cc1OC [Example 431] | true (1) |
| COc1cc2nccc(Oc3ccc(NC(=S)NC(=O)CCCc4ccccc4)cc3)c2cc1OC [Example 725] | false (0) |
| COc1cc2nccc(Oc3ccc(NC(=S)NC(=O)COc4ccccc4C)cc3Cl)c2cc1OC [Example 740] | false (0) |
| COc1cc2nccc(Oc3ccc(NC(=O)OCCN4C(=O)c5ccccc5C4=O)c(C)c3C)c2cc1OC [Example 420] | true (1) |
| COc1cc(Oc2ncnc3cc(OC)c(OC)cc23)ccc1NC(=O)OC1CCCCCC1 [Example 498] | true (1) |
| COc1cc2ncnc(Oc3ccc(NC(=O)OC4CCCCCC4)c([N+](=O)[O-])c3)c2cc1OC [Example 507] | false (0) |
| COc1cc2nccc(Oc3ccc(NC(=O)OC4CCCN(C)C4)cc3)c2cc1OC (stereo not shown) [Example 462] | false (0) |
| CCCC(CCN1CCOCC1)OC(=O)Nc1ccc(Oc2ccnc3cc(OC)c(OC)cc23)c(C)c1C (stereo not shown) [Example 439] | true (1) |
| COc1cc2nccc(Oc3ccc(NC(=O)NCCN(C(C)C)C(C)C)c([N+](=O)[O-])c3)c2cc1OC [Example 658] | false (0) |
| COc1cc2nccc(Oc3ccc(NC(=O)OC4CCOCC4)cc3)c2cc1OC [Example 470] | true (1) |
| COc1cc2nccc(Oc3ccc(NC(=O)NC4CCN(Cc5ccccc5)C4)c(C)c3C)c2cc1OC (stereo not shown) [Example 604] | false (0) |
| COc1cc2nccc(Oc3cc(C)c(NC(=O)OCCCN4CCN(C)CC4)cc3C)c2cc1OC [Example 425] | false (0) |
| COc1cc2nccc(Oc3ccc(NC(=S)NCCCN4CCN(C)CC4)c(C)c3C)c2cc1OC [Example 557] | false (0) |
| CCN(CC)CCCOC(=O)Nc1ccc(Oc2ccnc3cc(OC)c(OC)cc23)cc1 [Example 426] | true (1) |
| CCN(CCNC(=S)Nc1ccc(Oc2ncnc3cc(OC)c(OC)cc23)cc1)c1ccccc1C [Example 528] | false (0) |

* * *

pIC50 values by entry
# system name: c-kit (Homo sapiens)
# Construct: MO7e (human megakaryocytic leukemia cell line) which had been arrested for 20 hr; endogenous in cells; host or cells: MO7e human megakaryocytic leukemia cell line
# assay overview: Inhibitory activity against c-kit autophosphorylation (MO7e cells, h-SCF)
# Format: cell-based
# assay setup: MO7e cells, h-SCF 50 ng/ml; read-out: c-kit IC50
pIC50: −log10 of the molar value.
attribute measured: pIC50

| compound | attribute measured | comparator | value |
| --- | --- | --- | --- |
| COc1cc2nccc(Oc3ccc(NC(=O)OCCCOc4cccc(F)c4)cc3)c2cc1OC | pIC50 | > | 7.52 |
| COc1cc2nccc(Oc3ccc(NC(=O)Oc4c(OC)cccc4OC)cc3)c2cc1OC | pIC50 | = | 6.43 |
| COc1cc2nccc(Oc3cc(C)c(NC(=O)OCc4ccccc4C)cc3C)c2cc1OC [Example 245] | pIC50 | = | 6.39 |
| COc1cc2ncnc(Oc3ccc(NC(=O)OCc4ccc(C(F)(F)F)cc4)c(Cl)c3)c2cc1OC | pIC50 | = | 6.25 |
| CCOc1ccccc1C(C)OC(=O)Nc1ccc(Oc2ccnc3cc(OC)c(OC)cc23)c(C)c1C (stereo not drawn) | pIC50 | = | 6.43 |
| COc1cc2nccc(Oc3ccc(NC(=O)Oc4ccccc4C(C)(C)C)c(C)c3C)c2cc1OC | pIC50 | = | 6.69 |
